biological target: Insulin receptor (Homo sapiens, UniProt P06213)
Sequence (P06213 28-758 limits assumed): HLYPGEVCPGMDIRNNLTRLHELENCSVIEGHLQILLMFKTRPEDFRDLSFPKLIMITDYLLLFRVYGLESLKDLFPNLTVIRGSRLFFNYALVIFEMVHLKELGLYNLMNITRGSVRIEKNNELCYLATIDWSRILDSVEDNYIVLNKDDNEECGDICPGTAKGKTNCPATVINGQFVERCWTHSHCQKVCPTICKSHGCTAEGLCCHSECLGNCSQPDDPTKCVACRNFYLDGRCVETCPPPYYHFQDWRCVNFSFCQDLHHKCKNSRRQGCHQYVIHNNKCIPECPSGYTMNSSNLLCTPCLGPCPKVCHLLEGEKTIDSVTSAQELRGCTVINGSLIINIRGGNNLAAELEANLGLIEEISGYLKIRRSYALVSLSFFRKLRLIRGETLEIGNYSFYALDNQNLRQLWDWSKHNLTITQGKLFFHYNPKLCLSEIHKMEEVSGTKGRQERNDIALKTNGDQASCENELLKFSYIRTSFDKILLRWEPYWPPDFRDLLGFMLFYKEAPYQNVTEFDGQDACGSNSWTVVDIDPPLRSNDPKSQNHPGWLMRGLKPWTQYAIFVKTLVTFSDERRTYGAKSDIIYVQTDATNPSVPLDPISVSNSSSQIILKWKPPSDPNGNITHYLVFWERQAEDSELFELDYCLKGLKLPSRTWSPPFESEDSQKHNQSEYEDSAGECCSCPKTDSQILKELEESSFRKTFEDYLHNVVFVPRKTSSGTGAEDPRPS
Sequence (P06213 763-1382 limits assumed): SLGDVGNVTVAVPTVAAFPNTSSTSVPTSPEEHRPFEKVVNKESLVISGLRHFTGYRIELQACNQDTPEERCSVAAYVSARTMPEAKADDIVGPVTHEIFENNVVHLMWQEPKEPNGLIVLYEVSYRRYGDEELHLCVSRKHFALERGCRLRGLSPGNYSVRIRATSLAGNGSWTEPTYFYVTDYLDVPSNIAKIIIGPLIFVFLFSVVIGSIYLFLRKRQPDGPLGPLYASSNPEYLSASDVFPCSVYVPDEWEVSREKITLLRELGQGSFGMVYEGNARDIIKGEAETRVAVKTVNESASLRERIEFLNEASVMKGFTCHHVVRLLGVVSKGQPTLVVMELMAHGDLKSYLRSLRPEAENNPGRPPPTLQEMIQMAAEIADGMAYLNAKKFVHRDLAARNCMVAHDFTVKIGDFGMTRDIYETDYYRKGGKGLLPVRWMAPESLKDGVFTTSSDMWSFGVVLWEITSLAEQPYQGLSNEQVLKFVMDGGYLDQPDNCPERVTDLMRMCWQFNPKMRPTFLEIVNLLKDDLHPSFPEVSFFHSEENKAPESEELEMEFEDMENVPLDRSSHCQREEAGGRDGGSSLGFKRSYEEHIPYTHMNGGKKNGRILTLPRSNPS
pIC50: −log10 of the molar value.
RESULT TYPE: pIC50

COMPOUND	DATA VALUE
CC(=O)N1CCN(C(=O)c2cc(CSc3cnc(NC(=O)c4ccc(CNC(C)C(C)(C)C)cc4)s3)cc(C)c2C)CC1 (stereo unspecified)	5.36

====

pIC50: −log10 of the molar value.
Recorded below: pIC50, system Tyrosine-protein kinase BTK (Homo sapiens, UniProt Q06187).

MOLECULE	INEQUALITY OPERATOR	pIC50
COc1cc(C)c(Sc2cnc(NC(=O)c3ccc(CNC(C)C(C)(C)C)cc3)s2)cc1C(=O)N1CCN(C(C)=O)CC1 (configuration not stated)	=	5.39
CC(=O)N1CCN(C(=O)c2cc(CSc3cnc(NC(=O)c4ccc(CNC(C)C(C)(C)C)cc4)s3)cc(C)c2C)CC1 (configuration not stated)	<	4.30
